# run.description: chemical genetic growth profiling, strain panel (AID 1159580);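 note: tested at 20 µM; growth read once vehicle control cultures reached saturation at 30 °C; 1 = growth at the plate median or of vehicle wells; lower values mean less growth of the strain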
# assay.conditions: S. cerevisiae deletion strains, growth OD, locus YEL061C, strain CIN8 (second series)
In all, about 5,500 compounds went through this assay and about 2,000 (36%) were called active. Not shown: some 18% with an inconclusive outcome. Cut-off read from the data, not from the text of the source: active = normalized growth mostly below about 0.91 (no sharp cut-off); inconclusive = no clear call, values can overlap the other calls; inactive = mostly above about 0.92. Some of the results follow. Where a SMILES comes first, the peptide text is derived from it.
Would you mind answering with one of these outcomes? active, inactive

Look over these answered cases.
INSERT INTO measurements (compound, assigned_label) VALUES
  ('Fc1ccc([C@@H]2CCNC[C@H]2COc2ccc3c(c2)OCO3)cc1', 'inactive'),
  ('CC1OC(O[C@H]2/C=C/C=C/C=C/C=C/C=C/C=C/C=C/[C@H](C)[C@@H](O)[C@@H](C)[C@H](C)OC(=O)CC(O)CC(O)CCC(O)C(O)CC(O)C[C@]3(O)C[C@H](O)C(C(=O)O)C(C2)O3)C(O)[C@H](N)C1O (stereo partly drawn)', 'active'),
  ('C=NC(C(=O)NC1C(=O)N2C1SC(C)(C)C2C(=O)O)c1ccccc1 (stereo not drawn)', 'inactive'),
  ('Clc1ccccc1CN1CCc2sccc2C1', 'inactive'),
  ('Nc1nc(F)nc2c1ncn2[C@@H]1O[C@H](COP(=O)(O)O)[C@@H](O)[C@@H]1O', 'inactive'),
  ('COc1ccc(-c2oc3cc(OC)c(OC)c(OC)c3c(=O)c2OC)cc1', 'inactive'),
  ('CC(=O)N[C@@H](CC(=O)O)C(=O)N[C@@H](CCC(=O)O)C(=O)O (Ac-Asp-Glu-OH)', 'inactive'),
  ('CCC(=O)OC1[C@@H]2CC3=C4CC(=O)O[C@@H](c5ccoc5)[C@]4(C)CCC3[C@@](C)(C2=O)[C@@H](CC(=O)OC)C1(C)C (stereo partly drawn)', 'inactive'),
  ('CC1[C@H](C)OC(=O)CC(O)CC(O)CC(O)CCC(O)C(O)C[C@]2(O)CC(O)C(C(=O)O)C(CC(OC3O[C@H](C)[C@@H](O)[C@H](N)[C@@H]3O)/C=C/C=C/C=C/C=C/CC/C=C/C=C/[C@H](C)[C@H]1O)O2 (stereo partly drawn)', 'active'),
  ('COc1ccc(-c2oc3cc(OC)c(OC)c(OC)c3c(=O)c2OC)cc1OC', 'inactive');

Qu. Kindly provide the recorded test outcome for the following compound: Oc1c(Cl)cc(Cl)c(Cl)c1Cc1c(O)c(Cl)cc(Cl)c1Cl
Ans. active

Qu. Kindly provide the recorded test outcome for the following compound: COc1ccc2oc3ccccc3c(=O)c2c1
Ans. active

Qu. Kindly provide the recorded test outcome for the following compound: CC(=O)N[C@@H](CCC(=O)O)C(=O)O
Ans. inactive

* * *

Items are presented alongside their recorded normalized growth.
# run.description: chemical genetic growth profiling, strain panel (AID 1159580)
# assay.conditions: S. cerevisiae deletion strains, growth OD, locus YGL173C, strain kem1, active compounds read low
The campaign covered roughly 5,500 compounds. About 2,000 (36%) were called active. Roughly 18% stayed inconclusive and do not appear here. Some of the results follow.
Give only the figure.

INSERT INTO assay_data (molecule, assay_endpoint, measured_result) VALUES
  ('CC12CCC3C(=CCc4cc(O)ccc43)C1CCC2=O (stereo unspecified)', 'normalized growth', 0.959);

Qu. Entry C1N2CN3CN1CN(C2)C3 has what normalized growth?
Ans. 0.994

Qu. Entry CC(=O)OC/C=C(\C)CC/C=C(\C)CC/C=C(\C)CC/C=C(\C)CC/C=C(\C)CC/C=C(\C)CC/C=C(\C)CC/C=C(\C)CCC=C(C)C has what normalized growth?
Ans. 0.974

Qu. Entry C=C[C@@]1(C)CC(=O)[C@@]2(O)[C@](C)(O1)[C@@H](OC(C)=O)[C@@H](O)C1C(C)(C)CC[C@H](O)[C@@]12C (stereo partly specified) has what normalized growth?
Ans. 0.987

Qu. Entry Clc1ccc(C(Cn2ccnc2)OCc2ccsc2Cl)c(Cl)c1 (stereo unspecified) has what normalized growth?
Ans. 0.0679

Qu. Entry COc1c(C)c2c(c(O)c1C/C=C(\C)CCC(=O)O)C(=O)OC2 has what normalized growth?
Ans. 0.82

Qu. Entry COc1ccc2c(c1)OCC(Cc1ccc(O)c(OC)c1)C2=O (stereo unspecified) has what normalized growth?
Ans. 0.973

Qu. Entry Clc1ccc(CO/N=C(/Cn2ccnc2)c2ccc(Cl)cc2Cl)c(Cl)c1 has what normalized growth?
Ans. 0.0926

Qu. Entry NCCCCCC(=O)O has what normalized growth?
Ans. 1

* * *

# run.description: chemical genetic growth profiling, strain panel (AID 1159580)
# assay.conditions: S. cerevisiae deletion strains, growth OD, locus YGR052W, strain FMP48
The campaign covered roughly 5,500 compounds. About 2,000 (36%) were called active. Not shown: some 18% with an inconclusive outcome. No stated cut-off is given here; in the data, active means normalized growth mostly below about 0.91 (no sharp cut-off); inconclusive means no clear call, values can overlap the other calls; inactive means mostly above about 0.92. This is one part of the list.
Would you mind answering with one of these outcomes? active, inactive

INSERT INTO results (smiles_code, assigned_label) VALUES
  ('C/C(=N/NC(=S)NCC(C)(C)C)c1cc(F)cc(Cl)c1O', 'inactive'),
  ('CCOC(=O)c1ccc(Oc2sccc2[N+](=O)[O-])cc1', 'inactive'),
  ('Clc1cc(Cl)cc(C=NCc2ccccc2)c1', 'inactive'),
  ('Cn1nccc1-c1cc(Cl)cc(Cl)c1O', 'inactive'),
  ('Cc1cccc(N=NC(C(=O)C(F)(F)F)=C(O)c2cccs2)c1', 'inactive'),
  ('Clc1ccc(-c2cnc(Nc3cc(Cl)cc(Cl)c3)s2)cc1', 'active');

Could you now look at the following compound, please?
Qu. Kindly provide the recorded test outcome for the following compound: O=[N+]([O-])c1ccsc1Oc1cccc(C(F)(F)F)c1
Ans. inactive

* * *

# run.description: chemical genetic growth profiling, strain panel (AID 1159580);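 note: tested at 20 µM; growth read once vehicle control cultures reached saturation at 30 °C; 1 = growth at the plate median or of vehicle wells; lower values mean less growth of the strain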
# assay.conditions: S. cerevisiae deletion strains, growth OD, locus YOR231W, strain MKK1, active compounds read low
Hit rate of the full screen: of about 5,500 compounds, about 2,000 (36%) were called active. About 18% were inconclusive and are not listed. The list shows a part of the results. Where a SMILES comes first, the peptide text is derived from it.
assay.endpoint: normalized growth
Give only the figure.

Here are 3 compounds together with their reported answers.
INSERT INTO measurements (compound, measured_result) VALUES
  ('CC(=O)N[C@@H](CC(=O)O)C(=O)N[C@@H](CCC(=O)O)C(=O)O (Ac-Asp-Glu-OH)', 0.982),
  ('Cc1cc(CC(=O)O)n(C)c1C(=O)c1ccc(Cl)cc1', 1.01),
  ('C[C@]12CCC3c4ccc(OC(=O)c5ccccc5)cc4CCC3C1CCC2=O (stereo not given in full)', 1.08);

Qu. Entry C[C@]12CCC3c4ccc(O)cc4CCC3C1CCC2=O (stereo not given in full) has what normalized growth?
Ans. 0.969

Qu. Entry CC12CCC3C(=CCc4cc(O)ccc43)C1CCC2=O (stereo not given) has what normalized growth?
Ans. 1.04

* * *

Items are presented alongside their recorded normalized growth.
# run.description: chemical genetic growth profiling, strain panel (AID 1159580);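 note: tested at 20 µM; growth read once vehicle control cultures reached saturation at 30 °C; 1 = growth at the plate median or of vehicle wells; lower values mean less growth of the strain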
# assay.conditions: S. cerevisiae deletion strains, growth OD, locus YPL241C, strain CIN2, active compounds read low
Out of some 5,500 compounds screened, about 2,000 (36%) were called active. Another 18% or so got no clear call; they are omitted. The list shows a part of the results.

Here are 4 compounds together with their reported answers.
INSERT INTO assay_data (compound, assay_endpoint, measured_result) VALUES
  ('CC12CCC3C(CC[C@H]4CC5(CCC34C)OCCO5)C1CCC2O (stereo partly specified)', 'normalized growth', '0.962 (inactive)'),
  ('CC(=O)C1CCC2C3CCC4C[C@H](O)CCC4(C)C3C[C@H](O)C12C (stereo partly specified)', 'normalized growth', '1.02 (inactive)'),
  ('CCOC(=O)c1ccc(Oc2ccc(Cl)cc2Cl)c([N+](=O)[O-])c1', 'normalized growth', '0.958 (inactive)'),
  ('CCOC(=O)C(O)(c1ccc(N)c(C)c1)C(F)(F)F (stereo unspecified)', 'normalized growth', '0.996 (inactive)');

Qu. Entry C[C@]12CCC3C(CC[C@H]4C[C@@H](O)CC[C@]34C)C1CC[C@@H]2O (stereo partly specified) has what normalized growth?
Ans. 1.02 (inactive)

Qu. Entry COC1=CC(=O)OC(CCc2ccc(OC)c(OC)c2)C1 (stereo unspecified) has what normalized growth?
Ans. 1 (inactive)

Qu. Entry CN(C)C/C=C(/c1ccc(Br)cc1)c1cccnc1 has what normalized growth?
Ans. 0.998 (inactive)

* * *

Items are presented alongside their recorded normalized growth.
# run.description: chemical genetic growth profiling, strain panel (AID 1159580);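 note: tested at 20 µM; growth read once vehicle control cultures reached saturation at 30 °C; 1 = growth at the plate median or of vehicle wells; lower values mean less growth of the strain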
# assay.conditions: S. cerevisiae deletion strains, growth OD, locus YBR021W, strain FUR4, active compounds read low
Screen size: about 5,500 compounds; about 2,000 (36%) were called active. Roughly 18% stayed inconclusive and do not appear here. The list shows a part of the results.
Give only the figure.

INSERT INTO assay_data (compound, assay_endpoint, measured_result) VALUES
  ('COC(=O)[C@@H]1OC(=O)C2OC23[C@@]1(C)CCC1[C@@]2(C)CCC(=O)C(C)(C)C2C[C@@H](OC(C)=O)[C@]13C (some centres not stated)', 'normalized growth', 1.03),
  ('CN(C)C(=O)Oc1ccc[n+](C)c1', 'normalized growth', 1.02);

Qu. Entry CC1CCC(NC(=O)N(CCCl)N=O)CC1 (configuration not stated) has what normalized growth?
Ans. 1.02

Qu. Entry O=C(O)C(O)C(O)C(O)C(O)C(=O)O (configuration not stated) has what normalized growth?
Ans. 0.99

Qu. Entry NC(C(=O)O)C(O)C(=O)O (configuration not stated) has what normalized growth?
Ans. 0.993

Qu. Entry COc1cc2c(cc1OC)C1(O)C(=O)c3ccc(O)c(C(=O)O)c3OC1CO2 (configuration not stated) has what normalized growth?
Ans. 1.06

Qu. Entry O=C(O)C(O)C(O)C(=O)O (configuration not stated) has what normalized growth?
Ans. 1.02
